system: MDA-MB-435; test: NCI tumour cell line growth inhibition, 48 h
Activity calls are given as the source filed them. No stated cut-off is given here; in the data, active = GI50 up to about 1.1 µM and inactive = higher.
One label from this list, please: 1 (active), 0 (inactive)

Observe how each entry below is paired with its result.
[[record]]
compound = "O=C1/C(=C/c2ccc(Cl)cc2)N=C(c2ccccc2)N1c1nc2ccccc2s1"
assayed_target = "MDA-MB-435"
qualitative_label = 0

[[record]]
compound = "O=C(NCc1ccccc1)c1cc2ccccc2o/c1=N\\c1cccc(C(F)(F)F)c1"
assayed_target = "MDA-MB-435"
qualitative_label = 0


Please share the test call associated with O=c1nc(Oc2c(F)c(F)c(F)c(F)c2F)ccn1C1OC(CO)C(O)C1O (configuration not stated) .
0

Please share the test call associated with COC(=O)C1(Cc2ccc3c(c2)CCC3)Cc2ccccc2C1O (configuration not stated) .
0

Please share the test call associated with C[Si](C)(OCCS(=O)(=O)O)OC(=C1S(=O)(=O)OCCOS1(=O)=O)c1cccc2ccccc12 .
0

Please share the test call associated with Cc1ccc(-n2nnc(C#N)c2O)cc1 .
0

Please share the test call associated with Cc1cc(=O)nc(S(=O)(=O)NC(=O)Nc2cccc(Cl)c2)[nH]1 .
0

Please share the test call associated with O[C@@H]1C[C@H]2N3CC[C@@]2(c2cc4c(cc2C3)OCO4)[C@H]2O[C@@H]12 .
0

Please share the test call associated with COc1ccc(C(=O)N(C(=S)OCCOc2ccccc2)c2ccccc2)cc1 .
0

Please share the test call associated with C=CCNC1=C2C[C@@H](C)C[C@@H](OC)[C@H](OC(=O)CN(C)C)[C@H](C)/C=C(\C)[C@@H](OC(N)=O)[C@H](OC)/C=C\C=C(/C)C(=O)NC(=CC1=O)C2=O .
1

Please share the test call associated with CSC(SC)=C(C#N)C(=O)Nc1ccc(C)cc1 .
0

Please share the test call associated with CCCCCCCCCC1CC(=O)NCC(=O)NC(C(C)C)C(=O)NC(CC(C)C)C(=O)NC(C)C(=O)NC(C(C)C)C(=O)O1 (configuration not stated) .
0

---

test system: MDA-MB-231; test: NCI tumour cell line growth inhibition, 48 h
The source made the active and inactive calls. No stated cut-off is given here; in the data, active = GI50 up to about 1.1 µM and inactive = higher.
One label from this list, please: Y (active), N (inactive)

Observe how each entry below is paired with its result.
[[record]]
compound = "COc1ccc(CC2c3cc(OC)c(OC)c(OC)c3CC[N+]2(C)C)cc1Oc1ccc(CC2c3cc4c(c(OC)c3CCN2C)OCO4)cc1 (stereo not drawn)"
qualitative_label = "N"

[[record]]
compound = "COc1cccc(C2C3=C(COC3=O)Oc3cc4c(cc32)OCO4)c1 (stereo not drawn)"
qualitative_label = "Y"

[[record]]
compound = "CN1C(=O)C(C(N)=O)C2CC1(C)Oc1ccccc12 (stereo not drawn)"
qualitative_label = "N"

[[record]]
compound = "CCOC(=O)NC(NCC(O)c1ccccc1)(C(F)(F)F)C(F)(F)F (stereo not drawn)"
qualitative_label = "N"

[[record]]
compound = "CCOC(=O)Nc1ccc(S(=O)(=O)Nn2cnnc2)cc1"
qualitative_label = "N"

[[record]]
compound = "CCCCCCCCCC1CC(=O)NCC(=O)NC(C(C)C)C(=O)NC(CC(C)C)C(=O)NC(C)C(=O)NC(C(C)C)C(=O)O1 (stereo not drawn)"
qualitative_label = "N"

[[record]]
compound = "Cc1cnc2c(c1)C(=O)N(c1ccc(Oc3ccccc3)cc1)S2(=O)=O"
qualitative_label = "N"


With those in mind, consider the next compound.
Please share the test call associated with CC1(C)CN=C(Nc2cccc(C(F)(F)F)c2)S1 .
Y

---

system: SF-539; assay: NCI tumour cell line growth inhibition, 48 h
The source made the active and inactive calls. Cut-off read from the data, not from the text of the source: active = GI50 up to about 1.1 µM and inactive = higher.
One label from this list, please: active, inactive

Observe how each entry below is paired with its result.
[[record]]
molecule = "C/C1=C\\[C@H](C)C[C@H](C)OC(=O)C[C@H](c2ccc(O)cc2)NC(=O)[C@@H](Cc2c(Br)[nH]c3ccccc23)N(C)C(=O)[C@H](C)NC(=O)[C@@H](C)C1 [JASPAMIDE]"
qualitative_label = "active"

[[record]]
molecule = "O=[N+]([O-])C(=C(N1CCCCC1)N1CCCCC1)/C(Cl)=C(\\Cl)Br"
qualitative_label = "inactive"

[[record]]
molecule = "CCOC(=O)CC(C)C(C#N)(OP1(=O)OC(c2ccccc2)C(C)N1C)c1ccccc1 (stereo not given)"
qualitative_label = "inactive"


Please share the test call associated with O=[N+]([O-])c1ccc(C2SCc3nc4ccccc4n32)cc1 (stereo not given) .
inactive

Please share the test call associated with COc1ccc(CC2c3cc(OC)c(OC)c(OC)c3CC[N+]2(C)C)cc1Oc1ccc(CC2c3cc4c(c(OC)c3CCN2C)OCO4)cc1 (stereo not given) .
inactive

---

system: TK-10; experiment: NCI tumour cell line growth inhibition, 48 h
Calls of active or inactive are those of the source. Rule as the data show it: active = GI50 up to about 1.1 µM and inactive = higher.
Listing of recorded GI50 by entry.

Examples from the recorded data:
[[record]]
compound = "C(=C\\c1ccccc1)/C=N/c1ccc2c(c1)Cc1ccccc1-2"
reading = "60.8 µM (inactive)"

[[record]]
compound = "CCCCCCCCCCCCCCCCCCNc1ccn(C2OC(COP(=O)(O)OCC3OC(n4ccc(NC(=O)CCCCCCCCCCCCCCCCC)nc4=O)C(OC(C)=O)C3OC(C)=O)C(OC(C)=O)C2OC(C)=O)c(=O)n1 (stereo not given)"
reading = "> 100 µM (inactive)"

[[record]]
compound = "C=CC1C2=C(C(=O)NCC2)C2OC(O)C3=C(CCNC3=O)C2C1C (stereo not given)"
reading = "> 100 µM (inactive)"

[[record]]
compound = "CCc1ccccc1NNc1cc(=O)[nH]c(=O)[nH]1"
reading = "> 10 µM (inactive)"


Tell me measured GI50 for CC(=O)NCCc1c(-c2[nH]c3ccccc3c2CCNC(C)=O)[nH]c2ccccc12 please.
92.7 µM (inactive)

Tell me measured GI50 for CN(C)c1cccc(-c2cc(O)c3cc4c(cc3n2)OCO4)c1 please.
1.83 µM (inactive)

Tell me measured GI50 for O=C(NCc1ccccc1)c1cc2ccccc2o/c1=N\c1cccc(C(F)(F)F)c1 please.
50.4 µM (inactive)

Tell me measured GI50 for CC1=C(C(=O)Nc2ccccc2)C(c2ccc(C)o2)C(C#N)=C(SCc2ccccc2)N1 (stereo not given) please.
> 65.3 µM (inactive)

Tell me measured GI50 for c1ccc(/N=c2\snc3scc(-c4ccccc4)n23)cc1 please.
66.2 µM (inactive)

Tell me measured GI50 for COC(=O)CCC(=O)CC(=O)C(=O)Nc1ccc(F)cc1 please.
> 100 µM (inactive)

Tell me measured GI50 for CCOC(=O)c1csc(NC(=O)CCN2CCOCC2)n1 please.
39.9 µM (inactive)

Tell me measured GI50 for Cc1cnc2c(c1)C(=O)N(c1ccc(Oc3ccccc3)cc1)S2(=O)=O please.
> 100 µM (inactive)

Tell me measured GI50 for CC[C@@]1(O)C(=O)OCc2c1cc1n(c2=O)Cc2c-1nc1ccccc1c2/C=N\NC(=O)C(N)CCSC (stereo not given in full) please.
6.4 µM (inactive)

Tell me measured GI50 for CC1OC(=O)C(C(C)C)NC(=O)C(C(C)C)OC(=O)C(C(C)C)NC(=O)C(C)OC(=O)C(C(C)C)NC(=O)C(C(C)C)OC(=O)C(C(C)C)NC(=O)C(C)OC(=O)C(C(C)C)NC(=O)C(C(C)C)OC(=O)C(C(C)C)NC1=O (stereo not given) please.
< 0.0001 µM (active)

Tell me measured GI50 for NC1=NN(c2ccccc2)C(=O)C1C(=O)C(=O)Nc1ccc(Cl)c(Cl)c1 (stereo not given) please.
> 100 µM (inactive)

---

Listing of recorded GI50 by entry.
system: SF-268; assay: NCI tumour cell line growth inhibition, 48 h
Activity calls are given as the source filed them. Rule as the data show it: active = GI50 up to about 1.1 µM and inactive = higher.

Examples from the recorded data:
[[record]]
compound = "NC1c2c(Cl)sc(Cl)c2C(=O)C1O (configuration not stated)"
reading = "43.1 µM (inactive)"

[[record]]
compound = "Clc1cccc(Cl)c1C1ON=C(c2ccccc2)N1C12CC3CC(CC(C3)C1)C2 (configuration not stated)"
reading = "82 µM (inactive)"

[[record]]
compound = "c1ccc2c(NCCCCCCNc3cccc4ccccc34)cccc2c1"
reading = "> 100 µM (inactive)"

[[record]]
compound = "C[C@]12CCC3[C@@H](CC[C@@H]4c5nonc5CC[C@]34C)C1CCC2=O (some centres not stated)"
reading = "33.6 µM (inactive)"


Tell me measured GI50 for COC(OC)c1cccnc1C please.
> 100 µM (inactive)

Tell me measured GI50 for CC1=C(Br)C(=O)C(C)=C(Br)C1=O.Cc1c(O)c(Br)c(C)c(O)c1Br please.
4.17 µM (inactive)

Tell me measured GI50 for O=C(c1ccccc1)c1ccc2cccc(OC3OC(CO)C(O)C(O)C3O)c2n1 (configuration not stated) please.
> 100 µM (inactive)

Tell me measured GI50 for O1C2C1C1OC1C1OC1C1OC21 (configuration not stated) please.
> 100 µM (inactive)
